System: CAKI-1
methodSummary: NCI tumour cell line growth inhibition, 48 h
The source made the active and inactive calls. Rule as the data show it: active = GI50 up to about 1.1 µM and inactive = higher.
recordedEndpoint: GI50

Example entries and their recorded answers appear below.
Nc1nc(N)c2c(Cl)c(CNc3ccc(C(=O)NC(CC(=O)O)C(=O)O)cc3)ccc2n1 (stereo not given) :: < 0.01 µM (active)
COc1ccc(/N=N\c2c(N)nn3c(SC)c(C#N)c(N)nc23)cc1 :: 10.9 µM (inactive)

Just so you know, measured GI50 for CC1C(=O)O[B-]2(c3ccccc3)Oc3ccccc3C=[N+]12 (stereo not given) came out at > 100 µM (inactive)

Just so you know, measured GI50 for CCC1(C(=O)OC(C)(C)C)OC12C(C)CCCC2C (stereo not given) came out at 33.7 µM (inactive)

Just so you know, measured GI50 for `COC(=O)C1=C(C)NC(C)=C(C(=O)OC)C1c1cccc(/[N+]([O-])=C/c2ccccc2)c1` came out at 18.1 µM (inactive)

Just so you know, measured GI50 for `CN1Cc2c(nc(-c3ccccc3)c[n+]2[O-])N(C)C1` came out at > 100 µM (inactive)

Just so you know, measured GI50 for `O=C(O)c1ccccc1-c1ccccc1C(=O)Nc1ccc2c(c1)Cc1ccccc1-2` came out at 51.9 µM (inactive)

Just so you know, measured GI50 for `CSc1cc(Cl)c(C)cc1S(=O)(=O)NC(=O)Nc1ccc(Cl)cc1` came out at 41.6 µM (inactive)

Just so you know, measured GI50 for `N#Cc1ccccc1NC(=O)C(=O)c1c(O)c2ccccc2oc1=O` came out at > 100 µM (inactive)

Just so you know, measured GI50 for `O=C(CCN(C(=O)O)S(=O)(=O)c1ccc(NC(=O)c2ccccc2)cc1)NC1CCCCC1` came out at > 100 µM (inactive)

---

Tested on: NCI-H23
methodSummary: NCI tumour cell line growth inhibition, 48 h
The source made the active and inactive calls. Cut-off read from the data, not from the text of the source: active = GI50 up to about 1.1 µM and inactive = higher.
Outcome (select one): t (active), f (inactive)

// known answers, use as guide
O=C1CCCc2cc3c(cc21)CC1(Cc2ccccc2C1)C3 :: f
C[C@]12CC[C@H]3[C@@H](CC[C@]4(O)C[C@@H](O)CC[C@]34/C=N/O)[C@@]1(O)CC[C@@H]2C1=COC(=O)C1 :: t
CCCCCCCCCCCCCCCCCCNc1ccn(C2OC(COP(=O)(O)OCCCCCCCCCCCCCCCC)C(O)C2O)c(=O)n1 (stereo not given) :: f
C=C1c2nc3ccccc3n2C=C(c2ccc(OC)cc2)N1c1ccc(OCCN2CCCCC2)cc1 :: f

Attention now shifts to the item below.
Qu. Per the assay record, what outcome was assigned to `CN(C)CCCNC(=O)c1cn2c(ccc3sc4ccccc4c(=O)c32)n1` ?
Ans. f

---

Test system: OVCAR-4
methodSummary: NCI tumour cell line growth inhibition, 48 h
Activity calls are given as the source filed them. Rule as the data show it: active = GI50 up to about 1.1 µM and inactive = higher.
recordedEndpoint: GI50

Example entries and their recorded answers appear below.
O=C1c2ccccc2C(=O)N1c1ccc(Cc2ccc(N3C(=O)c4ccccc4C3=O)cc2)cc1 :: > 100 µM (inactive)
Cc1noc(/N=C2\C=C(Nc3onc(C)c3C)C(=O)c3ccccc32)c1C :: > 100 µM (inactive)
CC(=O)OCC1OC(On2ccccc2=S)C(OC(C)=O)C(OC(C)=O)C1OC(C)=O (centres undefined) :: > 100 µM (inactive)
N#Cc1c(O)c(/C=N/c2ccc(Cl)cc2)c(=O)n2c1[nH]c1ccccc12 :: > 100 µM (inactive)

Just so you know, measured GI50 for CCCCCCCCC/C=C1/CC(CO)(COC(=O)CC(C(C)C)C(C)C)OC1=O (centres undefined) came out at 14.7 µM (inactive)

Just so you know, measured GI50 for `CSC1=NS(=O)(=O)c2cc(C(=O)NN(C)C(=O)c3cc4c(cc3Cl)SC(SC)=NS4(=O)=O)c(Cl)cc2S1` came out at > 10 µM (inactive)

Just so you know, measured GI50 for `C/C(=C/CO[Si](C)(C)C(C)(C)C)C(=O)N(C)c1ccccc1I` came out at 15.3 µM (inactive)

Just so you know, measured GI50 for `Cc1nc(=O)c2cc(CN(C)c3ccc(C(=O)N[C@@H](CCC(=O)O)C(=O)O)s3)ccc2[nH]1` came out at > 100 µM (inactive)

Just so you know, measured GI50 for O=C1OC(=O)C2CCCC3CCCC1C32 (centres undefined) came out at > 100 µM (inactive)

---

Test system: MDA-MB-435
methodSummary: NCI tumour cell line growth inhibition, 48 h
The source made the active and inactive calls. Rule as the data show it: active = GI50 up to about 1.1 µM and inactive = higher.
recordedEndpoint: GI50

Example entries and their recorded answers appear below.
Cc1ccc2nc(SCC(=O)N/N=C3\C(=O)Nc4ccccc43)n(-c3ccccc3)c(=O)c2c1 :: 16.5 µM (inactive)
Cc1ccc2c(c1)[n+]([O-])c(N)n[n+]2[O-] :: > 100 µM (inactive)
CC1=C[C@@H]2Cc3nc4cc(Cl)ccc4c(N)c3[C@H](C1)C2 :: 10.9 µM (inactive)
CC1(O)CCC(C(C)(C)O)CC1 (stereo not drawn) [TERPIN] :: > 100 µM (inactive)
COc1ccc(/N=N\c2c(N)nn3c(SC)c(C#N)c(N)nc23)cc1 :: 13.3 µM (inactive)

Just so you know, measured GI50 for CCCCCCCCC/C=C1/CC(CO)(COC(=O)CC(C(C)C)C(C)C)OC1=O (stereo not drawn) came out at 2.79 µM (inactive)

Just so you know, measured GI50 for `CCN(CC)C(=S)SS(=O)(=O)c1cccc(N)c1` came out at > 100 µM (inactive)

Just so you know, measured GI50 for `CCc1c(Cl)c(C)cc(O)c1Cl` came out at 35.6 µM (inactive)

---

# maps each entry to its GI50
Test system: SR
methodSummary: NCI tumour cell line growth inhibition, 48 h
Activity calls are given as the source filed them. No stated cut-off is given here; in the data, active = GI50 up to about 1.1 µM and inactive = higher.

CSc1cc(Cl)c(C)cc1S(=O)(=O)NC(=O)Nc1ccc(Cl)cc1 :: 21.5 µM (inactive)

Just so you know, measured GI50 for `O=S(=O)(O)c1cc(/N=[N+](\[O-])c2cc(S(=O)(=O)O)c3ccccc3c2)cc2ccccc12` came out at 38.5 µM (inactive)

Just so you know, measured GI50 for `COc1cc(C[C@@]2(C)[C@@H]3CCC[C@H](CO)[C@@]3(C)CC[C@@H]2C)c(Cl)c(OC)c1` came out at 16 µM (inactive)

Just so you know, measured GI50 for `Cc1cc(C)c2c(c1)N[S@@](=O)S2` came out at 36.2 µM (inactive)

Just so you know, measured GI50 for CCCCCCCC(=O)OCC(C[As](=O)(O)O)OC(=O)CCCCCCC (stereo not given) came out at 16.6 µM (inactive)

Just so you know, measured GI50 for C[C@@H]1CC[C@@]2(OC1)O[C@H]1C[C@H]3[C@@H]4CC[C@H]5C[C@@H](OC6OC(CO)C(OC7OC(CO)C(O)C(OC8OCC(O)C(O)C8O)C7OC7OC(CO)C(O)C(O)C7O)C(O)C6O)[C@H](O)C[C@]5(C)[C@H]4CC[C@]3(C)[C@H]1[C@@H]2C (stereo not given in full) came out at 14.3 µM (inactive)

---

# maps each entry to its GI50
Test system: HOP-62
methodSummary: NCI tumour cell line growth inhibition, 48 h
Calls of active or inactive are those of the source. No stated cut-off is given here; in the data, active = GI50 up to about 1.1 µM and inactive = higher.

CCOC(=O)/C=C(\C(=O)OCC)n1ccc(=O)n(CC(=O)OCC)c1=O :: 20.7 µM (inactive)
Cc1cc(S(=O)(=O)[N-]/C(=N/S(=O)(=O)c2ccc(Cl)cc2)[n+]2ccc(N(C)C)cc2)c(S)cc1Cl :: 43.5 µM (inactive)
C[C@@H]1CC[C@@]2(OC1)O[C@H]1C[C@H]3[C@@H]4CC[C@H]5C[C@@H](OC6OC(CO)C(OC7OC(CO)C(O)C(OC8OCC(O)C(O)C8O)C7OC7OC(CO)C(O)C(O)C7O)C(O)C6O)[C@H](O)C[C@]5(C)[C@H]4CC[C@]3(C)[C@H]1[C@@H]2C (stereo partly specified) :: 1.42 µM (inactive)

Just so you know, measured GI50 for C/C=C1/CN2CCC34c5ccccc5N5C(=O)C(C6CC78c9ccccc9N9C(=O)C=CC(C%10CC7N6C/C%10=C/C)C98)=CC(C1CC23)C54 (stereo unspecified) came out at 8.59 µM (inactive)

Just so you know, measured GI50 for `COc1ccc(OC)c2c1C(=O)C(O)=C(Cl)C2=O` came out at > 100 µM (inactive)

Just so you know, measured GI50 for `CC(=O)O[C@H]1CC[C@@]2(C)C(=CC[C@H]3[C@@H]4C/C(=C\c5ccncc5)[C@H](OC(C)=O)[C@@]4(C)CC[C@@H]32)C1` came out at 4.54 µM (inactive)

---

System: NCI/ADR-RES
methodSummary: NCI tumour cell line growth inhibition, 48 h
The source made the active and inactive calls. No stated cut-off is given here; in the data, active = GI50 up to about 1.1 µM and inactive = higher.
# maps each entry to its GI50

CCN1CC2=C(NC(=S)NC2c2cc(OC)c(OC)c(OC)c2)/C(=C/c2cc(OC)c(OC)c(OC)c2)C1 (stereo not given) :: 30.9 µM (inactive)

Just so you know, measured GI50 for CC(=O)C1(C)CC(C#N)(C#N)C(C#N)=C1N (stereo not given) came out at > 100 µM (inactive)

Just so you know, measured GI50 for CC(=O)OCC1OC(On2ccccc2=S)C(OC(C)=O)C(OC(C)=O)C1OC(C)=O (stereo not given) came out at > 100 µM (inactive)
